# method_description: amyloid nucleation score (Sup35N fusion, yeast selection) (log enrichment); library NNK2; higher = more nucleation; inactive = no reads after selection;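 further: zero at mode of non-aggregating sequences after 7 days selection at 30°C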
Binning of amyloid nucleation score into classes: lower segment (below -0.2), middle segment (-0.2 to below 2), upper segment (2 or more)

1. LPLKNRVVDTCRKRFVGEVG | middle segment
2. HIDVLMGCWMRIVTWSR | upper segment
3. GTQRAYGVKGKLETDLIRLK | upper segment
4. QRAYVPQTLGVRISVSSRWQ | upper segment
5. FNYWPYVLNWWELLYQDDAT | middle segment
6. RSLGTRAFAVRFRTSCWINV | lower segment
7. FFMLYYGYLLSVRDSCSLCI | middle segment
8. LFIYYWYLLFYGSPYIWLPV | lower segment
9. YNGLMNISIATMC | lower segment
10. WLYYDGSFW | lower segment
11. FNGLVVFSEHMIRITACDEG | lower segment
12. LSCWAYHVSWGWWHYIFAW | middle segment
13. RRIFYHEYHMRDSIH | middle segment
14. VTKILCSRTWGKSG | middle segment
15. HRDKLKVSPQITRSSFRRLS | middle segment
16. LEYFITTSGSSSKVLHGFTM | lower segment
17. SVSNVPRGWSLTRGLSTVPG | middle segment
18. IGDSVGSDWTSTFMCDSVCR | middle segment
19. FISRVMVSGVLTGLAWPM | middle segment
20. WHGPYYCGGCRTDIVCWNRA | upper segment
21. SSADMQRY | lower segment
22. HWERLIGNLM | lower segment
23. HAMWCFGFIVLGGGNDIRIW | upper segment
24. LCMRTFGLHHCPGYG | middle segment
25. FFCGMRPYVLVNCLCVFREN | upper segment
26. ECGVLFV | middle segment
27. NWGMLLGCGGW | middle segment
28. ILWWNKAMGCFNELVLGRRV | middle segment
29. QGLFLLSCPSSN | upper segment
30. SPHASMTIVIF | middle segment
31. SMILVHKSNLQFLGKDDTQS | upper segment
32. QNMNLVHEIGMNRSLVFTFW | middle segment
33. TIQAYICPLVSKAYWWGVEY | upper segment
34. MVIYHVPQYVRYWQP | middle segment
35. FNLTICSLDVPTFL | lower segment
36. NGNTVVLGSLIFYKLVLVAS | upper segment
37. FLRWRDKWHG | middle segment
38. RKSYGRSWSSGNLYYNLHGD | lower segment
39. MCGKRGLRGWLKSDDVIIWV | upper segment
40. GYLVYFLCINRLACCSYLAT | upper segment
41. GFKSFEHL | middle segment
42. LNSPLIPVRLMGVVRFQLLD | lower segment
43. ICRDWVDDNVFKIMGRTQRS | middle segment
44. GHGFCDNVTSP | lower segment
45. VPGRYFSQELVFTLFLGMAK | lower segment
46. LNRYYSLPRLSVPSSVRSCG | lower segment
47. WTCDCSLKVFCNM | upper segment
48. PDDCGWVLMFENQFAAAGTP | middle segment
49. RRHSNRICLQLWNHLGKRCR | middle segment
50. SKCLSIPISCFTCVLLCYFF | middle segment
51. IMYLLGKGLWTVAVYPSRYP | lower segment
52. YSWKFFCRWNEQD | middle segment
53. GSRYTEKIPGNRNRSRISL | lower segment
54. YWTPISFVY | lower segment
55. VTSNGKRTWHVAAAFGAPGE | upper segment
56. FHEDRERGTIFDEFMIFRN | lower segment
57. DNRGKLDWAPSSVVSVWLIC | upper segment
58. TTIFYKPLQCLLGLFFYP | lower segment
59. LTILFH | upper segment
60. ETMIHTPQELYVMYSPLTQQ | upper segment
61. FGAFVYWVFSIAYTLSRGSR | lower segment
62. VMLGHYTVLFGVKVRECREG | middle segment
63. RVLRLVSVLLFDVILSVE | upper segment
64. FEYNRF | middle segment
65. VNRDRAQLWVACITCRCNFR | upper segment
